# Target system: T1, human CD11a (human) (UniProt P20701)
# T1 sequence (looked up): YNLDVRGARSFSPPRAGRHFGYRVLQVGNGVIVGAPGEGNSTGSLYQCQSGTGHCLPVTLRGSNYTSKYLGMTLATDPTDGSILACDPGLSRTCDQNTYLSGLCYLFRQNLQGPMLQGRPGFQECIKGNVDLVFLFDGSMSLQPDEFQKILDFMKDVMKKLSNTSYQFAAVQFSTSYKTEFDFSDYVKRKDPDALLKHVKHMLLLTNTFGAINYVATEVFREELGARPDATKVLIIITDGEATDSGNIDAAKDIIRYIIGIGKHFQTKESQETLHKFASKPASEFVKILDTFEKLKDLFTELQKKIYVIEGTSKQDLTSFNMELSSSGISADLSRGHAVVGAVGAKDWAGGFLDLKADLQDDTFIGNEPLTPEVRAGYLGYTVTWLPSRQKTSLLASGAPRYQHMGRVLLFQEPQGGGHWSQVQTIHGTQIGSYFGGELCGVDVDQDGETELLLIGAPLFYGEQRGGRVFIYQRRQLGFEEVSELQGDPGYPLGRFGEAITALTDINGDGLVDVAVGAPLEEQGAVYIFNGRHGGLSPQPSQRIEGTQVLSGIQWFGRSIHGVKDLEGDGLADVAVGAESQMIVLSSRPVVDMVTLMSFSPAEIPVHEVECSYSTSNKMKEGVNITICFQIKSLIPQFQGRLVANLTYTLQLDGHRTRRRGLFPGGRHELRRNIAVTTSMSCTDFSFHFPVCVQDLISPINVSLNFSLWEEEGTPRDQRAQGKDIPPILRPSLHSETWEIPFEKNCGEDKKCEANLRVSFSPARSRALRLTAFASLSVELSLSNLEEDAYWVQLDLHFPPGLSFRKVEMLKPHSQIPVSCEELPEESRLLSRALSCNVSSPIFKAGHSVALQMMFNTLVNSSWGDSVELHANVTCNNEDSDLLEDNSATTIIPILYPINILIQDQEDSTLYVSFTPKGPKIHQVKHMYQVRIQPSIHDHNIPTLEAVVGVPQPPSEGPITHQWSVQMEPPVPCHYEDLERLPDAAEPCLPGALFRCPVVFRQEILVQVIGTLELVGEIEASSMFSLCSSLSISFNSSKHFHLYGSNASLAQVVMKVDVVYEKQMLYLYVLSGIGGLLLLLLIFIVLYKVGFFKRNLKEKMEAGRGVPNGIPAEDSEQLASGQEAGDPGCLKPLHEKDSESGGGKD
# Assay summary: FACScan, Jurkat cells
Property name: Var.EC50/HuIgG1 EC50
Lab note: jot the number down without any unit.

[in] Fill blank: measured Var.EC50/HuIgG1 EC50 of the binder TyrH99Ala variant IgG1 (antibody, V domains shown) VH: EVQLVESGGGLVQPGGSLRLSCAASGYSFTGHWMNWVRQAPGKGLEWVGMIHPSDSETRYNQKFKDRFTISVDKSKNTLYLQMNSLRAEDTAVYYCARGIYFAGTTYFDYWGQGTLVTVSS VL: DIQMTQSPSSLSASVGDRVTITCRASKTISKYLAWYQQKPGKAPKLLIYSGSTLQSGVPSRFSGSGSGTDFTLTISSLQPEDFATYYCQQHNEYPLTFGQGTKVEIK is ____.
[out] 1.4

[in] Fill blank: measured Var.EC50/HuIgG1 EC50 of the binder GluL93Ala variant IgG1 (antibody, V domains shown) VH: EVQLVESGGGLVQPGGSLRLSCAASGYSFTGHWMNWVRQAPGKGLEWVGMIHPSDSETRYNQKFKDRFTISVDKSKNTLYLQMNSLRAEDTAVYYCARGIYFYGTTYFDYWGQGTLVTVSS VL: DIQMTQSPSSLSASVGDRVTITCRASKTISKYLAWYQQKPGKAPKLLIYSGSTLQSGVPSRFSGSGSGTDFTLTISSLQPEDFATYYCQQHNAYPLTFGQGTKVEIKR is ____.
[out] 1.7

[in] Fill blank: measured Var.EC50/HuIgG1 EC50 of the binder H2 variant IgG1 (antibody, V domains shown) VH: EVQLVESGGGLVQPGGSLRLSCAASGYSFTGHWMNWVRQAPGKGLEWVGMIAPADAETRYNQKFKDRFTISVDKSKNTLYLQMNSLRAEDTAVYYCARGIYFYGTTYFDYWGQGTLVTVSS VL: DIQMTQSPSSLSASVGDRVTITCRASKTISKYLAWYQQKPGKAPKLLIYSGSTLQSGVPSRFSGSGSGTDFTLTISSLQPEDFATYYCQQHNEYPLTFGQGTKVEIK is ____.
[out] 14.1

[in] Fill blank: measured Var.EC50/HuIgG1 EC50 of the binder H3B variant IgG1 (antibody, V domains shown) VH: EVQLVESGGGLVQPGGSLRLSCAASGYSFTGHWMNWVRQAPGKGLEWVGMIHPSDSETRYNQKFKDRFTISVDKSKNTLYLQMNSLRAEDTAVYYCARGIYFYGAAAFDYWGQGTLVTVSS VL: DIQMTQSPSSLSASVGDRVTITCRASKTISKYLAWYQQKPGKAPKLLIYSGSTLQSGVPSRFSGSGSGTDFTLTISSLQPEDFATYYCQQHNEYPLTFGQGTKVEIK is ____.
[out] 34.7

[in] Fill blank: measured Var.EC50/HuIgG1 EC50 of the binder LysH73Ala variant IgG1 (antibody, V domains shown) VH: EVQLVESGGGLVQPGGSLRLSCAASGYSFTGHWMNWVRQAPGKGLEWVGMIHPSDSETRYNQKFKDRFTISVDASKNTLYLQMNSLRAEDTAVYYCARGIYFYGTTYFDYWGQGTLVTVSS VL: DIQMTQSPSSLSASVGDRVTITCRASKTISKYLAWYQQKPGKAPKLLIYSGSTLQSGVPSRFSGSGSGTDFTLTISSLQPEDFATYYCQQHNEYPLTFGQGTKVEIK is ____.
[out] 5.2
